FYI, the data here is from patent US20240101572A1.

- TGT: full-length human PLD1 (Homo sapiens (Human))
- Sequence (Q13393 other isoform, or with tags, fused parts or gaps): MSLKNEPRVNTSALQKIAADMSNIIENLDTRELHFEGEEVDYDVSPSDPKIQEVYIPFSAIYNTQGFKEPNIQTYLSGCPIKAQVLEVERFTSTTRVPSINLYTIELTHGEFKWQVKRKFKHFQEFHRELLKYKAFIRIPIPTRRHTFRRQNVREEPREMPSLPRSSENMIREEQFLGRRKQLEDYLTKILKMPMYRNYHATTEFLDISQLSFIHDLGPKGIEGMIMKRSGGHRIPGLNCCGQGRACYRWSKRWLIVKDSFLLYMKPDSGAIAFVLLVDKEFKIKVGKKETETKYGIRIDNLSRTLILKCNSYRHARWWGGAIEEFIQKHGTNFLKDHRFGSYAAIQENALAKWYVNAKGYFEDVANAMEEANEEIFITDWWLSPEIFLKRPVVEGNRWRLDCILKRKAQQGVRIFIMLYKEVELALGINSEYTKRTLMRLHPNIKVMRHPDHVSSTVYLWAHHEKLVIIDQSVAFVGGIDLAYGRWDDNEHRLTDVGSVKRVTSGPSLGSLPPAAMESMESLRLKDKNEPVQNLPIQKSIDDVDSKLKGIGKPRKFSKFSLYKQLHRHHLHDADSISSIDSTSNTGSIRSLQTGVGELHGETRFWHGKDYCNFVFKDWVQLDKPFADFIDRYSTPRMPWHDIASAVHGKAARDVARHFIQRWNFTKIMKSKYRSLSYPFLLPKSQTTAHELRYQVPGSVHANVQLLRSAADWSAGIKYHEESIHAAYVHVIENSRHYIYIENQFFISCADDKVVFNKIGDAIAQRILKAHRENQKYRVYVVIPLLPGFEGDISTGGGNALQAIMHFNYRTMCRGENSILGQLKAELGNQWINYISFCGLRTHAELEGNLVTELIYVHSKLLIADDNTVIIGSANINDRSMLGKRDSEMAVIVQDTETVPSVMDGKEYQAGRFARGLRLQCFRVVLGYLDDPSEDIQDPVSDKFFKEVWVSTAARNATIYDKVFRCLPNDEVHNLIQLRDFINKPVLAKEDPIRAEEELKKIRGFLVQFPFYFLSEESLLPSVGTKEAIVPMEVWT
- EXPERIMENT: Evaluation of human PLD1 enzyme inhibitory activity (Amplex Red / choline oxidase fluorescence)
- Assay type: biochemical
- EXPERIMENTAL_CONDITIONS: full-length human PLD1 enzyme; read-out: PLD1 IC50
Each entry below carries its reported IC50.
METRIC: IC50 (µM)

In [3]: df
Out[3]:
                                   compound  metric  value_unit  reported_measurement
0  CNC(=O)C(=O)N[C@@H](C)C[C@H]1CC[C@]2(CC1)OC(=O)NN=C2c1ccc(F)cc1Br    IC50          µM                  0.01
1  C[C@@H](C[C@H]1CC[C@]2(CC1)OC(=O)NN=C2c1ccc(F)cc1Br)NC(=O)C1CC1    IC50          µM                 0.307
2  Cc1cc(C(=O)N[C@@H](C)CN2CCC3(CC2)OC(=O)NN=C3c2cc(C#N)ccc2Br)[nH]n1 [Example 301]    IC50          µM                  0.03
3  CNC(=O)C(=O)N[C@@H](C)C[C@]1(O)CC[C@@]2(CC1)OC(=O)NN=C2c1ccc(F)cc1Br    IC50          µM                 0.042
